- ASSAY SYSTEM: Aβ(25-35) (Homo sapiens, UniProt P05067)
- Construct: Monomeric Aβ(25-35) purchased from Bachem Pharma
- EXPERIMENT SUMMARY: Screening assay for inhibition of Aβ(25-35) aggregation (Thioflavin-T fluorescence)
- CONDITION DESCRIPTION: molecule at purity above 90%; ThT fluorescence, 25° C., 0-120 minutes; read-out: IC50 for inhibiting aggregation of Aβ25-35
ASSAY READOUT: IC50
The reply should consist of the numeric value with the unit placed after it.

{"COMPOUND": "O=C1OC[C@H]2OC(O)[C@H](O)[C@@H](O)[C@@H]2OC(=O)c2cc(O)c(O)c(O)c2-c2c(O)c(O)c3oc(=O)c4c(c(O)c(O)c5oc(=O)c2c3c54)-c2c1cc(O)c(O)c2O (mixture of isomers)", "ASSAY SYSTEM": "Aβ(25-35) (Homo sapiens, UniProt P05067)", "ASSAY READOUT": "IC50", "MEASURED": "10 µM"}
{"COMPOUND": "O=C1OC[C@H]2OC(O)[C@@H]3OC(=O)c4cc(O)c(O)c(O)c4-c4c(cc(O)c(O)c4O)C(=O)O[C@H]3[C@@H]2OC(=O)c2cc(O)c(O)c(O)c2-c2c1cc(O)c(O)c2O (stereo partly shown)", "ASSAY SYSTEM": "Aβ(25-35) (Homo sapiens, UniProt P05067)", "ASSAY READOUT": "IC50", "MEASURED": "11 µM"}
{"COMPOUND": "O=C1O[C@H]2[C@@H]3OC(=O)c4cc(O)c(O)c(O)c4-c4c(O)c(O)c5oc(=O)c6c(c(O)c(O)c7oc(=O)c4c5c76)-c4c(cc(O)c(O)c4O)C(=O)OC[C@H]3OC(O)[C@@H]2OC(=O)c2cc(O)c(O)c(O)c2-c2c1cc(O)c(O)c2O (mixture of isomers)", "ASSAY SYSTEM": "Aβ(25-35) (Homo sapiens, UniProt P05067)", "ASSAY READOUT": "IC50", "MEASURED": "6 µM"}

We next turn to a different compound, shown below.
Recorded IC50 for O=C(O[C@@H]1O[C@@H]2COC(=O)c3cc(O)c(O)c(O)c3-c3c(cc(O)c(O)c3O)C(=O)O[C@H]([C@H]1O)[C@@H]2O)c1cc(O)c(O)c(O)c1 with Aβ(25-35) (Homo sapiens, UniProt P05067), please?
65 µM
